Tested on: CCRF-CEM leukemia
Assay: NCI-60 one-dose screen, 48 h
Details: 10 µM
About 83,000 compounds went through this panel and 20% of them were active in at least one assay; those are over-represented in the sample as a whole. The source made the active and inactive calls. Rule for the calls: active = growth percent below 10; inactive = the rest.
The reply should be one of these categories: active, inactive

CCC(C)CC(N)O (stereo not given) | inactive
CC1(C)N=C(N)N=C(N)N1c1cccc(CCCCOc2ccccc2)c1 | inactive
COc1ccc(C2CC(=O)c3c(O)cc(OC4OC(COC5OC(C)C(O)C(O)C5O)C(O)C(O)C4O)cc3O2)cc1O (stereo not given) | inactive
O=C(N/N=C\c1ccc(Cl)cc1)C(=O)N/N=C\c1ccc(Cl)cc1 | inactive
O=C(Nc1cccc(Cn2c(=O)[nH]c3ccc(Oc4ncccn4)cc3c2=O)c1)c1cccc(F)c1 | inactive

Exercise: # outcome recorded in this test, key = "O=C(Nc1ccc(-n2cc(-c3ccncc3)c(-c3ccc(Cl)c(O)c3)n2)cc1)c1ccc(Cl)c(Cl)c1"
Solution: inactive

Exercise: # outcome recorded in this test, key = "COc1ccc2c(c1)cn1c3ccc(O)cc3[nH]c(=O)c21"
Solution: inactive

Exercise: Short answer needed: outcome of this test for CC(Br)c1nc2ccccc2cc1C(N)=O (stereo not given) ?
Solution: inactive

Exercise: What was the test verdict on "COc1ccc(-c2cn3ccnc3c(-c3ccc4ncn(C5CCCCC5)c4c3)n2)cc1" ?
Solution: active

Exercise: Hi, do you know how "COc1cccc(NC(=O)NCCNc2nccc(-c3c(-c4ccc(F)cc4)nc4sccn34)n2)c1" came out in this test?
Solution: inactive

Exercise: What did the test return for "COc1cccc(-c2cc(-c3cc4ccccc4oc3=O)nc(N)n2)c1" ?
Solution: inactive

Exercise: Assay outcome for "CCN(CC)CCNc1ncnc2c1cnn2-c1ccc(Cl)cc1" : what was it?
Solution: inactive
